tested on: Serratia marcescens NCTC 10211; test: Nitroreductase detection on Columbia agar, colonies read under UV; format: cell-based; parameters: key: − = no fluorescence detected; +/− = weak fluorescence; + = medium fluorescence; ++ = strong fluorescence; settings: 100 mg/l in Columbia agar, 24 h 37° C., UV 360-365 nm
endpoint.name: Intensity of fluorescence, Serratia marcescens NCTC 10211

- O=[N+]([O-])c1ccc(F)cc1-c1nc2ccccc2s1 [Substrate 15]: ++
- O=[N+]([O-])c1ccccc1-c1nc2cc(Cl)ccc2o1 [Substrate 2]: +
- O=[N+]([O-])c1ccccc1-c1nc2ccccc2n1CCc1ccccc1 [Substrate 12]: −
- COc1cc(-c2nc3ccccc3o2)c([N+](=O)[O-])cc1OC [Substrate 6]: +

// below: Intensity of fluorescence, Serratia marcescens NCTC 10211 requested for another molecule
## Input Query the reported Intensity of fluorescence, Serratia marcescens NCTC 10211 for Serratia marcescens NCTC 10211; item: O=[N+]([O-])c1ccc(F)cc1-c1nc2ccccc2o1 [Substrate 7]
## Output ++

---

test system: Enterobacter cloacae NCTC 11936; assay: Nitroreductase detection on Columbia agar, colonies read under UV; type: cell-based; parameters: key: − = no fluorescence detected; +/− = weak fluorescence; + = medium fluorescence; ++ = strong fluorescence; conditions: 100 mg/l in Columbia agar, 24 h 37° C., UV 360-365 nm
endpoint.name: Intensity of fluorescence, Enterobacter cloacae NCTC 11936

Example compounds with recorded Intensity of fluorescence, Enterobacter cloacae NCTC 11936:
- O=[N+]([O-])c1ccc(F)cc1-c1nc2ccccc2s1 [Substrate 15]: ++
- O=[N+]([O-])c1ccc(F)cc1-c1nc2ccccc2o1 [Substrate 7]: ++
- COc1cc(-c2nc3ccccc3o2)c([N+](=O)[O-])cc1OC [Substrate 6]: +
- O=[N+]([O-])c1ccccc1-c1nc2ccccc2n1CCc1ccccc1 [Substrate 12]: −

## Input Reported Intensity of fluorescence, Enterobacter cloacae NCTC 11936 for O=[N+]([O-])c1ccccc1-c1nc2cc(Cl)ccc2o1 [Substrate 2] : what is it?
## Output +

---

Test system: Staphylococcus aureus NCTC 6571
Assay: Nitroreductase detection on Columbia agar, colonies read under UV
Type: cell-based
Design: key: − = no fluorescence detected; +/− = weak fluorescence; + = medium fluorescence; ++ = strong fluorescence
Details: 100 mg/l in Columbia agar, 24 h 37° C., UV 360-365 nm
Procedure: A mass of 40 mg of each substrate was dissolved in 4 ml of dimethylformamide (DMF). This solution was entirely taken up in 400 ml of Columbia agar autoclaved beforehand and kept molten at 50° C. The final concentration for each substrate was 100 mg/l. […] 18 microorganism strains derived from collections and belonging to various species of bacteria and of yeasts were inoculated onto these media by semi-quantitative isolation of 10 μl of a suspension at 0.5 McFarland diluted to 1/20. […]
endpoint.name: Intensity of fluorescence, Staphylococcus aureus NCTC 6571

* O=[N+]([O-])c1ccc(F)cc1-c1nc2ccccc2s1 [Substrate 15] | ++
* COc1cc(-c2nc3ccccc3o2)c([N+](=O)[O-])cc1OC [Substrate 6] | +
* O=[N+]([O-])c1ccc(F)cc1-c1nc2ccccc2o1 [Substrate 7] | ++
* O=[N+]([O-])c1ccccc1-c1nc2ccccc2n1CCc1ccccc1 [Substrate 12] | −

## Input Bench note: what Intensity of fluorescence, Staphylococcus aureus NCTC 6571 did O=[N+]([O-])c1ccccc1-c1nc2cc(Cl)ccc2o1 [Substrate 2] show?
## Output +

---

tested on: S. epidermidis 2 strains; assay: Detection of various strains of S. aureus in the presence of substrates; assay type: cell-based; details: 48 h
endpoint.name: No. of strains detected, S. epidermidis

# example entries with known answers
* O=[N+]([O-])c1ccc(F)cc1-c1nc2ccccc2s1 [Substrate 15] | 2
* O=[N+]([O-])c1ccccc1-c1nc2cc(Cl)ccc2o1 [Substrate 2] | 2
* Cc1ccc2oc(-c3ccccc3[N+](=O)[O-])nc2c1 [Substrate 3] | 2
* O=[N+]([O-])c1ccc(Cl)cc1-c1nc2ccccc2s1 [Substrate 21] | 2
* CN1CCN(c2ccc([N+](=O)[O-])c(-c3nc4ccccc4o3)c2)CC1 [Substrate 8] | 2
* COc1cc(-c2nc3ccccc3o2)c([N+](=O)[O-])cc1OC [Substrate 6] | 2
* O=[N+]([O-])c1ccc(Cl)cc1-c1nc2ccccc2o1 [Substrate 4] | 2

Lab note: next compound to report on.
## Input // lookup No. of strains detected, S. epidermidis for O=[N+]([O-])c1ccc(F)cc1-c1nc2ccccc2o1 [Substrate 7]
## Output 2
